# test-details: Colorimetric alkylation rate constant assay with TNB^2− as non-specific thiol
# Format: physicochemical
# experimental-parameters: Time 3613 sec; [B]0 = 250; Replicates 1-3; in µM
endpoint-name: remaining [B]
Respond using a number only.

Please review the following examples before continuing.
1. C=CS(=O)(=O)Nc1cc2cc(C(=O)CCC(=O)O)sc2cc1OC [Compound E1]    241.426
2. O=C(CCl)Nc1ccccc1 [Compound C2]    240.077
3. COc1cc2sc(C(=O)CCC(=O)O)cc2cc1NC(=O)CCl [Compound E2]    237.79
4. O=C(CCl)N1CCOCC1 [Compound C4]    232.246

Prompt line: Which remaining [B] reading was recorded for the compound O=C(CCl)Nc1ccc(F)cc1 [Compound C3] ?
Response line: 239.851

Prompt line: Which remaining [B] reading was recorded for the compound O=C(CCl)Nc1ccccc1C(=O)O [Compound C5] ?
Response line: 244.28

----------
# test-details: Colorimetric alkylation rate constant assay with TNB^2− as non-specific thiol
# Format: physicochemical
# experimental-parameters: Replicate 1, 2710 sec, [B]0 = 250; in µM
Each entry below lists one item and its recorded remaining [B] value.
Respond using a number only.

1) COc1cc2sc(C(=O)CCC(=O)O)cc2cc1NC(=O)CCl [Compound E2]    240.323
2) C=CS(=O)(=O)Nc1cc2cc(C(=O)CCC(=O)O)sc2cc1OC [Compound E1]    242.169
3) O=C(CCl)Nc1ccc(F)cc1 [Compound C3]    240.985
4) O=C(CCl)Nc1ccccc1 [Compound C2]    240.229
5) O=C(CCl)N1CCOCC1 [Compound C4]    235.737

Read the next record carefully.
Prompt line: Which remaining [B] reading was recorded for the compound O=C(CCl)Nc1ccccc1C(=O)O [Compound C5] ?
Response line: 245.427

----------
Each entry below lists one item and its recorded remaining [A] value.
# test-details: Colorimetric alkylation rate constant assay with thiol N1
# Format: physicochemical
# experimental-parameters: Replicate 1; time 606 sec; N1 from calibration curve (N1 in uM); in µM
Respond using a number only.

Please review the following examples before continuing.
1. C=CS(=O)(=O)Nc1cc2cc(C(=O)CCC(=O)O)sc2cc1OC [Compound E1]    46.4649
2. COc1cc2sc(C(=O)CCC(=O)O)cc2cc1NC(=O)CCl [Compound E2]    16.6256
3. O=C(CCl)Nc1ccccc1    79.6386
4. O=C(CCl)N1CCOCC1    77.4156
5. O=C(CCl)Nc1ccccc1C(=O)O    84.6546

Read the next record carefully.
Prompt line: Which remaining [A] reading was recorded for the molecule O=C(CCl)Nc1ccc(F)cc1 ?
Response line: 78.3561

----------
# test-details: Colorimetric alkylation rate constant assay with TNB^2− as non-specific thiol
# Format: physicochemical
# experimental-parameters: Replicate 3, 1626 sec, [B]0=250; in µM
endpoint-name: remaining [B]
Respond using a number only.

Please review the following examples before continuing.
1) O=C(CCl)Nc1ccccc1 [Compound C2]    243.593
2) O=C(CCl)Nc1ccc(F)cc1 [Compound C3]    243.24
3) C=CS(=O)(=O)Nc1cc2cc(C(=O)CCC(=O)O)sc2cc1OC [Compound E1]    245.899

Prompt line: Which remaining [B] reading was recorded for the compound O=C(CCl)N1CCOCC1 [Compound C4] ?
Response line: 239.542

Prompt line: Which remaining [B] reading was recorded for the compound O=C(CCl)Nc1ccccc1C(=O)O [Compound C5] ?
Response line: 245.149

Prompt line: Which remaining [B] reading was recorded for the compound COc1cc2sc(C(=O)CCC(=O)O)cc2cc1NC(=O)CCl [Compound E2] ?
Response line: 240.789

----------
# test-details: Colorimetric alkylation rate constant assay with TNB^2− as non-specific thiol
# Type: physicochemical
# experimental-parameters: Replicate 1, 1445 sec, [B]0 = 250; in µM
endpoint-name: remaining [B]
Respond using a number only.

1. C=CS(=O)(=O)Nc1cc2cc(C(=O)CCC(=O)O)sc2cc1OC [Compound E1]    245.231
2. O=C(CCl)Nc1ccccc1 [Compound C2]    242.598

Prompt line: Which remaining [B] reading was recorded for the compound O=C(CCl)Nc1ccc(F)cc1 [Compound C3] ?
Response line: 243.291

Prompt line: Which remaining [B] reading was recorded for the compound O=C(CCl)N1CCOCC1 [Compound C4] ?
Response line: 240.437

Prompt line: Which remaining [B] reading was recorded for the compound O=C(CCl)Nc1ccccc1C(=O)O [Compound C5] ?
Response line: 246.548

Prompt line: Which remaining [B] reading was recorded for the compound COc1cc2sc(C(=O)CCC(=O)O)cc2cc1NC(=O)CCl [Compound E2] ?
Response line: 242.176

----------
# test-details: LC–MS/MS analysis of in situ SC2S formation (tissue distribution)
# Assay type: in vivo, BALB/c mice
# experimental-parameters: BALB/c, mouse, liver, 4h; read-out: Liver Mean concentration
endpoint-name: concentration at 4 h

Prompt line: Which concentration at 4 h reading was recorded for the molecule COc1cc2sc(C(=O)CCC(=O)O)cc2cc1SCCSc1cc2cc(C(=O)CCC(=O)O)sc2cc1OC [SC2S] ?
Response line: 9.3 ng/g

----------
# test-details: Colorimetric alkylation rate constant assay with thiol N1
# Type: physicochemical
# experimental-parameters: Replicate 2; time 576 sec; N1 from calibration curve (N1 in uM); in µM
endpoint-name: remaining [A]

Please review the following examples before continuing.
1. COc1cc2sc(C(=O)CCC(=O)O)cc2cc1NC(=O)CCl [Compound E2]    15.4999
2. O=C(CCl)Nc1ccccc1 [Compound C2]    80.4092
3. O=C(CCl)Nc1ccc(F)cc1 [Compound C3]    78.9353
4. O=C(CCl)N1CCOCC1 [Compound C4]    78.0283
5. O=C(CCl)Nc1ccccc1C(=O)O [Compound C5]    85.8231

Prompt line: Which remaining [A] reading was recorded for the compound C=CS(=O)(=O)Nc1cc2cc(C(=O)CCC(=O)O)sc2cc1OC [Compound E1] ?
Response line: 30.5226

----------
# test-details: Colorimetric alkylation rate constant assay with thiol N1
# Type: physicochemical
# experimental-parameters: Replicate 2; time 606 sec; N1 from calibration curve (N1 in uM); in µM
remaining [A] strictly less than 80 = Y. Otherwise N.

Sample answers from the record:
1. O=C(CCl)N1CCOCC1 [Compound C4]    Y
2. O=C(CCl)Nc1ccccc1C(=O)O [Compound C5]    N
3. COc1cc2sc(C(=O)CCC(=O)O)cc2cc1NC(=O)CCl [Compound E2]    Y

Pending compound:
Prompt line: Is 80 strictly greater than the compound's reported remaining [A]? compound: C=CS(=O)(=O)Nc1cc2cc(C(=O)CCC(=O)O)sc2cc1OC [Compound E1]
Response line: Y

----------
# test-details: Colorimetric alkylation rate constant assay with TNB^2− as non-specific thiol
# Type: physicochemical
# experimental-parameters: Replicate 3, 1988 sec, [B]0=250; in µM
Each entry below lists one item and its recorded remaining [B] value.
Respond using a number only.

1) O=C(CCl)Nc1ccc(F)cc1    242.686
2) C=CS(=O)(=O)Nc1cc2cc(C(=O)CCC(=O)O)sc2cc1OC [Compound E1]    245.08
3) O=C(CCl)Nc1ccccc1    242.824
4) O=C(CCl)Nc1ccccc1C(=O)O    245.036
5) O=C(CCl)N1CCOCC1    238.244

Read the next record carefully.
Prompt line: Which remaining [B] reading was recorded for the compound COc1cc2sc(C(=O)CCC(=O)O)cc2cc1NC(=O)CCl [Compound E2] ?
Response line: 240.273

----------
# Tested on: THP-1 Lucia ISG cells (interferon pathway)
# test-details: Potency test of purified dimers on THP-1 Lucia ISG reporter cells
# Type: cell-based, human
# experimental-parameters: Homo sapiens, THP1-Lucia ISG, 24 h, Concentration 10000 nM; three replicates; read-out: Processed reporter response per replicate (reading relative to DMSO)
Each entry below lists one item and its recorded fold induction at 10 µM value.
Respond using a number only.

1. COc1cc2sc(C(=O)CCC(=O)O)cc2cc1Sc1cc2cc(C(=O)CCC(=O)O)sc2cc1OC [Compound D1]    242
2. COc1cc2sc(C(=O)CCC(=O)O)cc2cc1SCCCSc1cc2cc(C(=O)CCC(=O)O)sc2cc1OC [Compound D6]    1.13
3. COc1cc2sc(C(=O)CCC(=O)O)cc2cc1CSCc1cc2cc(C(=O)CCC(=O)O)sc2cc1OC [Compound D7]    233

Prompt line: Which fold induction at 10 µM reading was recorded for the molecule COc1cc2sc(C(=O)CCC(=O)O)cc2cc1SCSc1cc2cc(C(=O)CCC(=O)O)sc2cc1OC [Compound D5] ?
Response line: 220

Prompt line: Which fold induction at 10 µM reading was recorded for the molecule COc1cc2sc(C(=O)CCC(=O)O)cc2cc1CCCSc1cc2cc(C(=O)CCC(=O)O)sc2cc1OC [Compound D4] ?
Response line: 9.81

Values were extracted from paper PMC12669040.
